B1: FBXO3 (parent)
chain: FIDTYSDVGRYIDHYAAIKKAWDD

Variants of: B1
Assay: protein stability index of a GFP-peptide fusion (GPS, HEK-293T) (PSI 1-6); higher = more stable;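 also: lentivirally expressed fusions sorted by FACS into six bins by GFP to DsRed ratio, PSI derived from sequencing read proportions per bin multiplied by bin number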
Conditions: c terminus: a fixed tail appended
Give protein stability index for every item shown.
Give bare numbers.

mutationList: R10N
quantity: protein stability index
experimentalResult: 1.88

mutationList: G9F
quantity: protein stability index
experimentalResult: 1.9

mutationList: K19W
quantity: protein stability index
experimentalResult: 2.34

mutationList: D23S
quantity: protein stability index
experimentalResult: 1.64

mutationList: V8C
quantity: protein stability index
experimentalResult: 1.9

I have 4 variants here; please give me protein stability index for each one.
1. A17D
2. D13T
3. R10G
4. K20L

**Result**
1. 2.23
2. 1.5
3. 1.92
4. 1.54

I have 2 variants here; please give me protein stability index for each one.
1. A16I
2. R10Y

**Result**
1.71
1.75

I have 4 variants here; please give me protein stability index for each one.
1. G9V
2. D23T
3. T4Y
4. I12L

**Result**
[1.77, 1.97, 1.82, 1.97]

I have 6 variants here; please give me protein stability index for each one.
1. D3Y
2. G9H
3. Y15M
4. A17Q
5. D24S
6. A21S

**Result**
[2.46, 1.9, 1.55, 1.62, 1.44, 2.12]

**Query** Need protein stability index, item V8A
**Result** 1.79

Just for reference, the supplement of paper PMC10567573 is where these values come from.
